Values from patent US8785463B2

# target.or.test.system: human GPR 119 receptor (Homo sapiens)
# Construct: expressed in transfected cells
# protocol.notes: cAMP assay in stable cell line expressing recombinant human GPR 119 receptor
# Type: cell-based
# measurement.conditions: 100 nM compound; DMSO = 1
# Excerpt: A stable cell line expressing recombinant human GPR 119 receptor was established and used to investigate the efficacy of the compounds of the invention based on the intracellular levels of cyclic AMP (cAMP) using commercially available cAMP kits.
measure: Fold increase in cyclic AMP with respective to DMSO (fold)

>>> reported_measurement("Cc1c(Oc2ccc(/C=C3\\SC(=O)NC3=O)cc2)ncnc1OC1CCN(C(=O)OC(C)C)CC1 [Example 16]")
2.54
>>> reported_measurement("Cc1c(Oc2ccc(/C=C3\\SC(=O)NC3=O)cc2)ncnc1OC1CCN(C(=O)OC(C)(C)C)CC1 [Example 1]")
2.27
>>> reported_measurement("Cc1c(Oc2cccc(/C=C3\\SC(=O)NC3=O)c2)ncnc1OC1CCN(c2nc(C(C)C)no2)CC1 [Example 25]")
5.81
>>> reported_measurement("CC(C)(C)OC(=O)N1CCC(Oc2cc(Oc3ccc(/C=C4\\SC(=O)N(S(C)(=O)=O)C4=O)cc3)ncn2)CC1 [Example 24]")
1.11
>>> reported_measurement("CC(C)COC(=O)N1CCC(Oc2cc(Oc3ccc(/C=C4\\SC(=O)NC4=O)cc3)ncn2)CC1 [Example 34]")
1.09
>>> reported_measurement("Cc1c(Oc2cccc(/C=C3\\SC(=O)NC3=O)c2)ncnc1OC1CCN(C(=O)OC(C)(C)C)CC1 [Example 9]")
4.86
>>> reported_measurement("CCOC(=O)N1CCC(Oc2ncnc(Oc3cccc(/C=C4\\SC(=O)N(C)C4=O)c3)c2C)CC1 [Example 4]")
4.95

* * *

# target.or.test.system: human GPR 119 receptor (Homo sapiens, UniProt Q8TDV5)
# Construct: expressed in transfected cells
# Sequence (Q8TDV5 1-335): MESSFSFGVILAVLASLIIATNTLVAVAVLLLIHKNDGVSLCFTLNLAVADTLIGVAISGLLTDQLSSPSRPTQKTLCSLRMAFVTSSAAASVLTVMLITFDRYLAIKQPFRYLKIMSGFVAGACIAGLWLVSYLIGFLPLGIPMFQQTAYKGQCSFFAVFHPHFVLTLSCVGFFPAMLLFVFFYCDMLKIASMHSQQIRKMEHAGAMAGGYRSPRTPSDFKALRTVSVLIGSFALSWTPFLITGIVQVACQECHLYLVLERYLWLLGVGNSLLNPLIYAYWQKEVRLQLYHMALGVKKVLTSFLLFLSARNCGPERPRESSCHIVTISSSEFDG
# protocol.notes: cAMP assay in stable cell line expressing recombinant human GPR 119 receptor
# Format: cell-based
# measurement.conditions: 100 nM compound; DMSO = 1
Here the recorded Fold increase in cyclic AMP with respective to DMSO is given for each entry.
measure: Fold increase in cyclic AMP with respective to DMSO (fold)

>>> reported_measurement("Cc1c(OCC2CCCN2C(=O)OC(C)(C)C)ncnc1Oc1ccc(/C=C2\\SC(=O)NC2=O)cc1 (stereo not shown) [Example 18]")
2.57
>>> reported_measurement("O=C1NC(=O)/C(=C/c2ccc(Oc3cc(OC4CCN(c5ncccn5)CC4)ncn3)cc2)S1 [Example 43]")
1.27
>>> reported_measurement("CCc1cnc(N2CCC(Oc3cc(Oc4ccc(/C=C5\\SC(=O)NC5=O)cc4)ncn3)CC2)nc1 [Example 41]")
1.58
>>> reported_measurement("CC(C)COC(=O)N1CCC(Oc2cc(Oc3ccc(/C=C4\\SC(=O)NC4=O)cc3)ncn2)CC1 [Example 53]")
1.79

* * *

# target.or.test.system: human GPR 119 receptor (Homo sapiens, UniProt Q8TDV5)
# Construct: expressed in transfected cells
# Sequence (Q8TDV5 1-335): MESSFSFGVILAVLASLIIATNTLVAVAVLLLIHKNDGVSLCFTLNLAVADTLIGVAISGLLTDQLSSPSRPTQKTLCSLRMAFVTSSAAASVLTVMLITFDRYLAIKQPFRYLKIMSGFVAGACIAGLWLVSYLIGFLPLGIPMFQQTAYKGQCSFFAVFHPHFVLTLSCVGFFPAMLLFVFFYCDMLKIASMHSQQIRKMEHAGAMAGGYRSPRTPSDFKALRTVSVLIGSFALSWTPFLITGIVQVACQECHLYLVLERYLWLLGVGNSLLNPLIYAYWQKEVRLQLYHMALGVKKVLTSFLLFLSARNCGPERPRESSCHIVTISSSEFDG
# protocol.notes: cAMP assay in stable cell line expressing recombinant human GPR 119 receptor
# Format: cell-based
# measurement.conditions: 10 nM compound; DMSO = 1
Here the recorded Fold increase in cyclic AMP with respective to DMSO is given for each entry.
measure: Fold increase in cyclic AMP with respective to DMSO (fold)

>>> reported_measurement("Cc1c(Oc2ccc(/C=C3\\SC(=O)NC3=O)cc2)ncnc1OC1CCN(C(=O)OC(C)C)CC1 [Example 16]")
1.91
>>> reported_measurement("COC(=O)N1CCC(Oc2ncnc(Oc3ccc(/C=C4\\SC(=O)NC4=O)cc3)c2C)CC1 [Example 11]")
1.00
>>> reported_measurement("O=C1NC(=O)/C(=C/c2ccc(Oc3cc(OC4CCN(C(=O)OCc5ccccc5)CC4)ncn3)cc2)S1 [Example 30]")
2.29
>>> reported_measurement("O=C1NC(=O)/C(=C/c2ccc(Oc3cc(OC4CCN(Cc5ccccc5)CC4)ncn3)cc2)S1 [Example 37]")
0.97
>>> reported_measurement("Cc1c(Oc2cccc(/C=C3\\SC(=O)NC3=O)c2)ncnc1OC1CCN(Cc2ccccc2)CC1 [Example 27]")
1.38
>>> reported_measurement("CCOC(=O)N1CCC(Oc2cc(Oc3ccc(/C=C4\\SC(=O)NC4=O)cc3)ncn2)CC1 [Example 52]")
1.15
>>> reported_measurement("CC(C)COC(=O)N1CCC(Oc2cc(Oc3cccc(/C=C4\\SC(=O)NC4=O)c3)ncn2)CC1 [Example 33]")
0.83
>>> reported_measurement("CCc1cnc(N2CCC(Oc3ncnc(Oc4cccc(/C=C5\\SC(=O)NC5=O)c4)c3C)CC2)nc1 [Example 26]")
4.02
>>> reported_measurement("CCOC(=O)N1CCC(Oc2ncnc(Oc3ccc(/C=C4\\SC(=O)NC4=O)cc3)c2C)CC1 [Example 14]")
1.40
>>> reported_measurement("O=C1NC(=O)/C(=C/c2cccc(Oc3cc(OC4CCN(C(=O)OCc5ccccc5)CC4)ncn3)c2)S1 [Example 29]")
2.09
>>> reported_measurement("Cc1c(Oc2cccc(/C=C3\\SC(=O)NC3=O)c2)ncnc1OC1CCN(C(=O)OC(C)(C)C)CC1 [Example 9]")
2.54
>>> reported_measurement("CCOC(=O)N1CCC(Oc2cc(Oc3cccc(/C=C4\\SC(=O)NC4=O)c3)ncn2)CC1 [Example 51]")
0.79
>>> reported_measurement("Cc1c(Oc2cccc(/C=C3\\SC(=O)NC3=O)c2)ncnc1OC1CCN(C(=O)OCc2ccccc2)CC1 [Example 50]")
1.73
>>> reported_measurement("CC(C)(C)OC(=O)N1CCC(Oc2cc(Oc3ccc(/C=C4\\SC(=O)N(S(C)(=O)=O)C4=O)cc3)ncn2)CC1 [Example 24]")
1.07
>>> reported_measurement("CC(C)(C)OC(=O)N1CCC(Oc2cc(Oc3cccc(/C=C4\\SC(=O)NC4=O)c3)ncn2)CC1 [Example 19]")
1.31
>>> reported_measurement("COC(=O)N1CCC(Oc2cc(Oc3cccc(/C=C4\\SC(=O)NC4=O)c3)ncn2)CC1 [Example 36]")
0.80

* * *

# target.or.test.system: human GPR 119 receptor (Homo sapiens)
# Construct: expressed in transfected cells
# protocol.notes: cAMP assay in stable cell line expressing recombinant human GPR 119 receptor
# Assay type: cell-based
# measurement.conditions: 10 nM compound; DMSO = 1
measure: Fold increase in cyclic AMP with respective to DMSO (fold)

>>> reported_measurement("O=C1NC(=O)/C(=C/c2ccc(Oc3cc(OC4CCN(c5ncccn5)CC4)ncn3)cc2)S1")
0.94
>>> reported_measurement("O=C1NC(=O)/C(=C/c2cccc(Oc3cc(OC4CCN(c5ncccn5)CC4)ncn3)c2)S1")
0.65
>>> reported_measurement("COC(=O)N1CCC(Oc2cc(Oc3ccc(/C=C4\\SC(=O)NC4=O)cc3)ncn2)CC1")
0.56

* * *

# target.or.test.system: human GPR 119 receptor (Homo sapiens, UniProt Q8TDV5)
# Construct: expressed in transfected cells
# Sequence (Q8TDV5 1-335): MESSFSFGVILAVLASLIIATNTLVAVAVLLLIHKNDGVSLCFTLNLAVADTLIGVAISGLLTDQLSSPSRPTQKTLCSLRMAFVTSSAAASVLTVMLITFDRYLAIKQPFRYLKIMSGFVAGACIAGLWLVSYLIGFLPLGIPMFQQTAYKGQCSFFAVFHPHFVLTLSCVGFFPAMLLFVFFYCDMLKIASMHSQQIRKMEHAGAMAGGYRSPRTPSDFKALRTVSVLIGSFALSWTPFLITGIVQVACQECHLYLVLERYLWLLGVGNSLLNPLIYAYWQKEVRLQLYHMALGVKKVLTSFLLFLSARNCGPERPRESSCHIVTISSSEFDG
# protocol.notes: cAMP assay in stable cell line expressing recombinant human GPR 119 receptor
# Assay type: cell-based
# measurement.conditions: 1 uM compound; DMSO = 1
measure: Fold increase in cyclic AMP with respective to DMSO (fold)

>>> reported_measurement("Cc1c(Oc2cccc(/C=C3\\SC(=O)NC3=O)c2)ncnc1OC1CCN(C(=O)OCc2ccccc2)CC1 [Example 50]")
5.74
>>> reported_measurement("CCN1C(=O)S/C(=C\\c2ccc(Oc3cc(OC4CCN(C(=O)OC(C)(C)C)CC4)ncn3)cc2)C1=O [Example 31]")
3.66
>>> reported_measurement("CC(C)COC(=O)N1CCC(Oc2cc(Oc3ccc(/C=C4\\SC(=O)NC4=O)cc3)ncn2)CC1 [Example 34]")
2.22
>>> reported_measurement("Cc1c(Oc2cccc(/C=C3\\SC(=O)NC3=O)c2)ncnc1OC1CCN(c2nc(C(C)C)no2)CC1 [Example 25]")
1.39
>>> reported_measurement("Cc1c(OCC2CCCN2C(=O)OC(C)(C)C)ncnc1Oc1ccc(/C=C2\\SC(=O)NC2=O)cc1 (stereo not shown) [Example 18]")
4.03
>>> reported_measurement("CC(C)(C)OC(=O)N1CCC(Oc2cc(Oc3ccc(/C=C4\\SC(=O)N(S(C)(=O)=O)C4=O)cc3)ncn2)CC1 [Example 24]")
2.27
>>> reported_measurement("CCc1cnc(N2CCC(Oc3ncnc(Oc4ccc(/C=C5\\SC(=O)N(S(C)(=O)=O)C5=O)cc4)c3C)CC2)nc1 [Example 3]")
2.02
